# measurement-description: yeast display, Sf9 membrane polyspecificity reagent, FACS + sequencing; frameworks hold sequencing errors
parameter-measured: polyreactivity (PSR sort gate)

Consider the worked cases shown below.
QVQLVESGGGLVQAGGSLRLSCASSGSTSYRYAMGWYRQAPGKERELVAAISSSGGSTYYADSVKGRFTISRDNAKNTVYLQMNSLKPEDTAVYYCAARFYSGPGGYTMYYWGQGTQVTVSS	high polyreactivity
QVQLVESGGGLVQAGGRLRLSCAASGSTIRLYAKGWYRQAPGKERELVAAISVSGGSTHYADSVKGRFTISRDNAKNTVYLQMNSLKPEDTAVYYCNAAGNPVSRYHYDYWGQGTQVTVSS	high polyreactivity
QLQLEESAGGLVQAGGSLRLSCAASGLTFPSYVMGRYRPAPGKEREFVAASTGSAGSTYYADSVKGRLTISRDNAKNTVYLQMISLKPEDSAVYYCAARVRYVNPKYYYWGHGTQVTVSS	high polyreactivity
QVHLVESGGGLVQAGGSLRLSCAASGSTFGTYAMGWYRQAPGKERELVAAISNSGGSTYYADSVKGRFTISRDYAKNTVYLQMNSLKPEDTAVYYCNTDGLVRNGPFYSWGQGTQVTVSS	low polyreactivity

# context switch: different sequence, same polyreactivity (PSR sort gate)
The measured polyreactivity (PSR sort gate) associated with "QVQLVESGGGLVQAGGSLRLSCAASGITLLYYAMGWYRQAPGKERELVAVIDWSGGDTYYADSVKGRFTISRDNAKNTVYLQMNSLKPEDTAVYYCARGSRLVYRRSGFDYWGQGTQVTVSS" reads low polyreactivity

====

# measurement-description: yeast display, Sf9 membrane polyspecificity reagent, FACS + sequencing; frameworks hold sequencing errors
parameter-measured: polyreactivity (PSR sort gate)

Consider the worked cases shown below.
QVQLVESGGGLVQAGGSLRLSCAASGSTFRYYAMGWYRQAPGKERELVASITSTGSTNYADSVKGRFTISRDNAKNTVYLQMNSLKPEDTAVYYCAAYRPYFGIAYGYWGQGTQVTVSS	high polyreactivity
QVQLVESGGGLVQAGGSLRLSCAASGRTFIRNAMGWYRQAPGKERELVAAITRSGGSTYYADSVKGRFTISRDNAKNTVYFQMNSLKPEDTAVYYCAAQPFYYLVGVPDDYWGQGTHVTVSS	low polyreactivity
QVQLVESGGGLVQAGGSLRLSCADSGIIFRYYAMGWYRQAPGKERELVADISRRGGSTYYADSVKGRFTISRDNAKNTVYLQMNSLKPEDTAVYYCAAKYRVYNYSPWGPYNYWGQVTQVTVSS	high polyreactivity
QVQLVESGGGLVQAGGSLRLSCAASGSTFVSNAMGWDRQAPGKERELVAAISSSGGRTSYADSEKGRFTISRDNAKNTVYLQMTSPKPEDTAVYYCAARFKSVDYVQYYYWGQGTQVTVSS	low polyreactivity

The measured polyreactivity (PSR sort gate) associated with "QVQLVESGGGLVQAGGSLRLLCAASGFTFFRYAKGWYRQAPGKERELLATINWSGGRTYYADSVKGRFTISRDNAKNTVYLQMNSLKPEDTAVYYSNAYYPSSFWRMDYWGQGTQVTVSS" reads high polyreactivity

====

# measurement-description: yeast display, Sf9 membrane polyspecificity reagent, FACS + sequencing; frameworks hold sequencing errors
parameter-measured: polyreactivity (PSR sort gate)

Consider the worked cases shown below.
QVQIVESGGGLVQAGGSLRLSCAASGRNFGRYAMGWYRHAPRKERELVATISSGGSTYYADSVKGRFTISRDNAKNTVYLPMNSLKQEDTAVYYCAADYLSYYLYEGSIKYGYWGQGTQVSVSS	high polyreactivity
QVQLVDSGGGLVQAGGSLRLSCAASGRIFPRNAMGWYRQAPGKERELVATIRSSTYYADSVKGRFTISRDNAKNTVYLQMNSLKPEDTAVYYCNVRLSYSYISPSDWNFDYWGQGTQVTVSS	low polyreactivity
QDQLVESAGGLVQAGGSLRLSCAASGRTFRAYAMGWYRQAPGKAMELVAAISRNGGTTYYADSVKGRFTMSRDNAKNTVYLQMNSLKPEDTAVSYCNARAGTKTGLKSDYWGQGTQVTVSS	high polyreactivity
QVQLVESGGGLVQAGGSLRLSCAASGSIFDGNGMGWSRQAPGKERELVASISGDGSTNYADSVKGRFTISRDNAKNTVYLQMNSLKPEDTAVYYCATDDPLSQINEQGMDYWGQGTQVTVSS	low polyreactivity

# context switch: different sequence, same polyreactivity (PSR sort gate)
The measured polyreactivity (PSR sort gate) associated with "QVQLVESGGGLVQAGGSLRLSCAASGRTLSVYAMGWYRQAPGKERELLAAITIRGGRTYYADSVKGRFTISRDNAKNTVYLQMNSLKPEDTAVYYCAAPPYVKMDYWGQGTQVTVSS" reads high polyreactivity

====

# measurement-description: yeast display, Sf9 membrane polyspecificity reagent, FACS + sequencing; frameworks hold sequencing errors
parameter-measured: polyreactivity (PSR sort gate)

QVQLVESGGGLVQAGGSLRLSCAASGIIFVKNAMGWYRQAPGKVRELVAAISRSGARTYYADSVKGRFTISRDNAKNTVYLLMNSLKPEDSAVYYCNKVVRYGHTRKIDTESDYWGQGTQVTVSS	high polyreactivity
QVQLVESGGGLVQEGGSLRLSCDASAITIGRYAMGWYRQAPGKERELVAAISWSGGSTYFADSVKGRFTISRDNAKNTVYLHMNSLKPEDTAVYYCATRIRTVAYNYWGQGTQVTVSS	high polyreactivity

====

# measurement-description: yeast display, Sf9 membrane polyspecificity reagent, FACS + sequencing; frameworks hold sequencing errors
parameter-measured: polyreactivity (PSR sort gate)

Consider the worked cases shown below.
QVQLVESGGGLVQAGGSLRLSCAASGSIFYPYAMGWYRQAPGKERELVAAISYSGGSTYYADSVKGSFTISRDNAKNTVYLQMNSMKPEDTAVYYCNRRYWRRPYYKYDYWGQGTQVTVSS	high polyreactivity
QVQLVESGRGLVQAGGSLRLSCAASGRTFAYYAMGWYRQAPGKERELVAGITTGGITNYADSVKGRFTISRDNAKNTVYLEMNRLKPEDTAVYYCAKANLFTYWYPGGNFDSAQSDYWGQGTQVTVSS	low polyreactivity
QVQHVESGGGLVQAGGSLRLSCAASGRTFYRYAMGWSRQAPGKERELVASINRGGSTNYADSVKGRFTISRDNAKNTVYLQMNSLKPEDTAVYYCNADGYQAASRVYRRPKRYYSWGQGTQVTVSS	low polyreactivity
QVQLVDSGGGLVQAGGSLRLSCAASGSIFVHYAMGWSRQAPGKEWELVAAITSSGGRTYYADSVKGRFTISRDNAKKTVYLQMNSLKPEDTEVYYCAAKQGRYNIYSNYDYWGQGTQVTVSS	high polyreactivity

# context switch: different sequence, same polyreactivity (PSR sort gate)
The measured polyreactivity (PSR sort gate) associated with "QVQLVESGGGLVQAGGSLRLSCAASGRTFRYNAMGWYRQAPGKERELVAAINWNGGSTYYADSVKGRFTISRDNAKNTVYLQMNSLKPEDTAVYYCAAYPGHGVTYWDRYYYWGQGTQVTVSS" reads high polyreactivity

====

# measurement-description: yeast display, Sf9 membrane polyspecificity reagent, FACS + sequencing; frameworks hold sequencing errors
parameter-measured: polyreactivity (PSR sort gate)

QVQLVETGGGLVQAGGSLRISCAASGLILDGYALGWYRQAPGKERELVAAITRSGGRTYYADSVKWRFTISRDNAKNTVYLQMNRLKPEDTAVYDCAALGWSGRYRYDYWGQGTLVTVSS	high polyreactivity
QVQLVESGGGLVQAGGSLRLSCAASGFIFTYYAMGWYRQAPGKERELVAAIRRGGNTYYADSVKGRFTISRDNAKNTVYLQMNSLKPEDTAVYYCAASAGPRASYYYWGQGTQVTVSS	high polyreactivity

====

# measurement-description: yeast display, Sf9 membrane polyspecificity reagent, FACS + sequencing; frameworks hold sequencing errors
parameter-measured: polyreactivity (PSR sort gate)

QVQLVESGGGLVQAGGSLSLICAASGSIFAPNAMGLYRQAPGKERELDATITKRGGNTYYADSVKGRFTISRDNAINTVYLKMNSLKPEDSAVFYCNDSPYSRWSSYGYDYWGQGTQVTVSS	low polyreactivity
QVQLVQSGGGLVQAGGSLRLSCAAMGWYRQAPGKERELVATITWSGGSTYYADSVKGRFTISRDNAKNTVYLQMNSLKPEDTAVYYCNARATLLSPANTILGYDYWGQGTQVTVSS	low polyreactivity
QVQLVESGGRLVQAGGSLRLSCAASGSTFYFYAMGWYRQEPGKERELVAAISFTDTSTYYADSVKARFTISRDNAKNNVYLQMNSLKPEDTAVYYCAADSDYWGQGTQVTVSS	high polyreactivity
QVQLVESGGGLVQAGGSLRLSCAASGITFVQYAMGWYRQAPGKERELVAAITSDGRTYYADSVKGRFTISRDNAKNTVYLQMNSLKPEDTAVYYCAADVWRYTAYGGAYRRDYWGQGTQVTVSS	low polyreactivity

# context switch: different sequence, same polyreactivity (PSR sort gate)
The measured polyreactivity (PSR sort gate) associated with "QVQLVESGGGLVQAGGSLRLSCAASGSIRYYAMGWYRPAPGKERELVAGITRNGGSTYYADSVKGRFTISRDNAKNTVYLQMNSLKPEDTAVYYCAAGFTTRRGEYNYWGQGTQVTVSS" reads high polyreactivity

Values were extracted from the nanobody polyreactivity screen of Harvey et al. (2022).
